test context: 323.15 K; 100 kPa; Liquid; Frequency=3 MHz; Sing-around technique in a fixed-path interferometer
readout type: speed of sound (m/s)
Please give a number only; it is taken to be in m/s.

{"compound": "O=Cc1ccccc1", "endpoint unit": "m/s", "speed of sound": 1366.4}
{"compound": "CCOC(=O)OCC [diethyl carbonate]", "endpoint unit": "m/s", "speed of sound": 1076.7}
{"compound": "N#Cc1ccccc1", "endpoint unit": "m/s", "speed of sound": 1329.5}

Please examine the following record next.
Record summary for "Nc1ccccc1" : reported speed of sound = 1540.9

---

// reported mass density per item
test context: 318.15 K; 100 kPa; Liquid; Vibrating tube method
Write it as a number; the unit kg/m3 goes unstated.

Below, 3 compounds whose answers are already recorded.
{"compound": "Nc1ccccc1", "readout type": "mass density", "reported value": 999.7}
{"compound": "CCOC(=O)OCC [diethyl carbonate]", "readout type": "mass density", "reported value": 946.4}
{"compound": "O=Cc1ccccc1", "readout type": "mass density", "reported value": 1023}

Looking up "N#Cc1ccccc1" , I found its mass density recorded as 982.5
